# measured-on: T1, recombinant human Tim-3-Fc (R&D Systems, 2365-TM) (human, UniProt Q8TDQ0 22-202, biotinylated in the Galectin-9 competition ELISA (sites not given))
# T1 construct: Bought protein; also called huTim-3-Fc; biotinylated Tim-3-Fc; not shown: Fc of the bought fusion protein
# assay-name: SPR Biacore, human Tim-3 Fc; KD estimated
readout-kind: pKd
In simple prose, pKd is minus the logarithm base ten of a concentration in moles per litre.

Recorded results for 3 binders are shown here.
binder="h22E11-VK1-39 × h22E11-5-IgG-HC (antibody, V domains shown, Humanized m22E11) VH: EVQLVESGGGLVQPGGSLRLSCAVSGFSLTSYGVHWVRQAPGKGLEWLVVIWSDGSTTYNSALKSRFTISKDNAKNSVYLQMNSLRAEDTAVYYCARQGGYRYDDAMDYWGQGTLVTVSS VL: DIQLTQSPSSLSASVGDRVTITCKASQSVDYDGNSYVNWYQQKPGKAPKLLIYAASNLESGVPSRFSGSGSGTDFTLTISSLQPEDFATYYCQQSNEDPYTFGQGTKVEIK" readout_kind=pKd reading=8.21
binder="h22E11-VK3-11 × h22E11-VH5-51 (antibody, V domains shown, Humanized m22E11) VH: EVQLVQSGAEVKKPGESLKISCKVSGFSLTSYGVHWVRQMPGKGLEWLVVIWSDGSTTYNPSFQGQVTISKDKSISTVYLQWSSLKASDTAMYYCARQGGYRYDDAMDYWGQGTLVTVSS VL: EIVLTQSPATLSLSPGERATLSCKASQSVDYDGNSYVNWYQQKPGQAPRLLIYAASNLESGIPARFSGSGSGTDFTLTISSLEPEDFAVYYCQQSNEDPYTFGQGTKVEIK" readout_kind=pKd reading=8.37
binder="h22E11-5-IgG-LC × h22E11-VH1-69 (antibody, V domains shown, Humanized m22E11) VH: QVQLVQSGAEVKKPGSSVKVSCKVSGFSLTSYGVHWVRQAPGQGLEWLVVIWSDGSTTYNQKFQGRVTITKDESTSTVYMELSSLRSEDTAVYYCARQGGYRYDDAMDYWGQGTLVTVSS VL: EIVLTQSPGTLSLSPGERATLSCKASQSVDYDGNSYVAWYQQKPGQAPRLLIYAASNLESGIPDRFSGSGSGTDFTLTISRLEPEDFAVYYCQQSNEDPYTFGQGTKVEIK" readout_kind=pKd reading=8.31

The binder listed as h22E11-5-IgG-LC × h22E11-VH4-30-4 (antibody, V domains shown, Humanized m22E11) VH: QVQLQESGPGLVKPSQTLSLTCTVSGFSLTSYGVHWIRQPPGKGLEWLVVIWSDGSTTYNPSLKSRVTISKDTSKNQVSLKLSSVTAADTAVYYCARQGGYRYDDAMDYWGQGTLVTVSS VL: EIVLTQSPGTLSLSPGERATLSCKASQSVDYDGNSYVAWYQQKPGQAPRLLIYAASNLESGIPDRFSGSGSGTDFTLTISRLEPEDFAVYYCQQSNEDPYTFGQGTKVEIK shows pKd equal to 8.12

// field: pKd; key: h22E11-VK2-28 × h22E11-5-IgG-HC (antibody, V domains shown, Humanized m22E11) VH: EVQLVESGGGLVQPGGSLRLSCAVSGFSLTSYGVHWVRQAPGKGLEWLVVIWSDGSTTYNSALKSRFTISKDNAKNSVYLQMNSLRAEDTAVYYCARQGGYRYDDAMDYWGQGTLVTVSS VL: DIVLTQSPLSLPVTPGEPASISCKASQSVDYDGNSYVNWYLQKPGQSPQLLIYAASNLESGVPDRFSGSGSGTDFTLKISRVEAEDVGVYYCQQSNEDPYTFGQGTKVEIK ; value = 8.17

Form: binder = h22E11-VK1-39 × h22E11-VH3-23 (antibody, V domains shown, Humanized m22E11) VH: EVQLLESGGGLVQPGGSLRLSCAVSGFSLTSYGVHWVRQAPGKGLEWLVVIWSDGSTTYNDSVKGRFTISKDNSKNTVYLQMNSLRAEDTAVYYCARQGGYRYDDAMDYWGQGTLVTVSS VL: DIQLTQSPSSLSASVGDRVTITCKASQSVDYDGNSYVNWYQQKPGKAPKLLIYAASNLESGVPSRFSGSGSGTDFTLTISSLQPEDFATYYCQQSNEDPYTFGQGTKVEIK ; pKd = 8.25

The value of pKd measured for the binder h22E11-5-IgG-LC × h22E11-VH3-23 (antibody, V domains shown, Humanized m22E11) VH: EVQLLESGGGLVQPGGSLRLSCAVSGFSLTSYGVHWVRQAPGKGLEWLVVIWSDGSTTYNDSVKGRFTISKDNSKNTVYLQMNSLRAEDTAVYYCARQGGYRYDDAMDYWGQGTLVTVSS VL: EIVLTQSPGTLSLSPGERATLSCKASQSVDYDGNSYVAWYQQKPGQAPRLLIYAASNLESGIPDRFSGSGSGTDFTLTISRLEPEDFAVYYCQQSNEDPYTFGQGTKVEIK turned out to be 8.28

Short answer for h22E11-5-IgG-LC × h22E11-VH5-51 (antibody, V domains shown, Humanized m22E11) VH: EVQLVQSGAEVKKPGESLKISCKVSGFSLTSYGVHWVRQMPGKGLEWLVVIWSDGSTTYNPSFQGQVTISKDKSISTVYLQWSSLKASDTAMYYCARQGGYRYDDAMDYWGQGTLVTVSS VL: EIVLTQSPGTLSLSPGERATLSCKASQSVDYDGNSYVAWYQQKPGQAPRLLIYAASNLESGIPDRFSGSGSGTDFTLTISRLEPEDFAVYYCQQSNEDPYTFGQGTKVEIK : pKd was 8.30

# binder h22E11-VK2-28 × h22E11-VH1-69 (antibody, V domains shown, Humanized m22E11) VH: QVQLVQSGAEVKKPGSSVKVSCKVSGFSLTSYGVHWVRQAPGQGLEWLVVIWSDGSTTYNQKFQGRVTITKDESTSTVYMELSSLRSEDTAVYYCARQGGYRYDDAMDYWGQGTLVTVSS VL: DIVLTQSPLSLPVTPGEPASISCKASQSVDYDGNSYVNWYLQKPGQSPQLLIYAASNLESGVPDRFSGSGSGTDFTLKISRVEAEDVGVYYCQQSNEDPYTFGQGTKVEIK ; its pKd = 8.27
